System: Peritoneal macrophage
EXPERIMENT DESCRIPTION: Anti-inflammatory activity in C57BL/6 mouse primary peritoneal macrophages assessed as inhibition of LPS-induced IL-6 secretion at 2.5 uM preincubated for 30 mins followed by LPS addition measured after 24 hrs by ELISA relative to control
Format: functional
TEST SETTINGS: C57BL/6, Peritoneal macrophage
The entries below come with measured inhibition at 2.5 µM values attached.

Solved entries (count: 5):
{"CHEMICAL STRING": "CCN1C/C(=C\\c2cccc(OC)c2OC)C(=O)/C(=C/c2cccc(OC)c2OC)C1", "EXPERIMENTAL ENDPOINT": "inhibition at 2.5 µM", "ASSAY RESULT": "> 50%"}
{"CHEMICAL STRING": "COc1cc(/C=C2\\COC/C(=C\\c3cc(OC)c(OC)c(OC)c3)C2=O)cc(OC)c1OC", "EXPERIMENTAL ENDPOINT": "inhibition at 2.5 µM", "ASSAY RESULT": "> 50%"}
{"CHEMICAL STRING": "CN1C/C(=C\\c2ccccc2Br)C(=O)/C(=C/c2ccccc2Br)C1", "EXPERIMENTAL ENDPOINT": "inhibition at 2.5 µM", "ASSAY RESULT": "> 50%"}
{"CHEMICAL STRING": "CCN1C/C(=C\\c2ccc(F)cc2)C(=O)/C(=C/c2ccc(F)cc2)C1", "EXPERIMENTAL ENDPOINT": "inhibition at 2.5 µM", "ASSAY RESULT": "> 50%"}
{"CHEMICAL STRING": "O=C1/C(=C/c2cccc(O)c2)COC/C1=C\\c1cccc(O)c1", "EXPERIMENTAL ENDPOINT": "inhibition at 2.5 µM", "ASSAY RESULT": "> 50%"}

The reported inhibition at 2.5 µM of the compound `COc1cc(/C=C2\CN(C)C/C(=C\c3cc(OC)c(OC)c(OC)c3)C2=O)cc(OC)c1OC` was > 50%

###

EXPERIMENT DESCRIPTION: Chemical stability in pH 7.4 phosphate buffer at 20 uM measured at 5 mins time intervals for 25 mins by UV absorbance spectroscopic method
Format: physicochemical
TEST SETTINGS: pH 7.4, 25 min
EXPERIMENTAL ENDPOINT: Stability

Solved entries (count: 5):
{"CHEMICAL STRING": "O=C1/C(=C/c2cccc(O)c2)COC/C1=C\\c1cccc(O)c1", "Stability": "Stable"}
{"CHEMICAL STRING": "CN1C/C(=C\\c2ccccc2Br)C(=O)/C(=C/c2ccccc2Br)C1", "Stability": "Unstable"}
{"CHEMICAL STRING": "COc1cc(/C=C2\\CN(C)C/C(=C\\c3cc(OC)c(OC)c(OC)c3)C2=O)cc(OC)c1OC", "Stability": "Stable"}
{"CHEMICAL STRING": "COc1cc(/C=C2\\COC/C(=C\\c3cc(OC)c(OC)c(OC)c3)C2=O)cc(OC)c1OC", "Stability": "Stable"}
{"CHEMICAL STRING": "COc1cc(/C=C/C(=O)CC(=O)/C=C/c2ccc(O)c(OC)c2)ccc1O", "Stability": "Unstable"}

Here is another molecule to look at.
The reported Stability of the molecule `CCN1C/C(=C\c2cccc(OC)c2OC)C(=O)/C(=C/c2cccc(OC)c2OC)C1` was Stable
